# Assayed Target: T1, CD3ε homodimer protein (human, UniProt P07766 23-126, limits assumed, sulfo-tag or biotin label in some ECL assays)
# T1 construct: also called human CD3ε homodimer protein; CD3 (CD3ε)
# T1 sequence (P07766 23-126 limits assumed): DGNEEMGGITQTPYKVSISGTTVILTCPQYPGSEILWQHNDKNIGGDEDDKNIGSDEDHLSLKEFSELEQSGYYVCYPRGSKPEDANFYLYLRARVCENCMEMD
# Assay Method Text: SPR, CD3ε homodimer on chip;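 note: biacore SPR with antibody variants flowed as analyte over amine-coupled CD3ε homodimer on a CM chip, bound amount of each single-residue H chain variant over that of parent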
Parameter: ratio of amounts bound vs CE115HA000
Provide a numeric answer; units are not to be included.

Task: ratio of amounts bound vs CE115HA000 lookup needed for CE115HA000 V95S (antibody, name in Kabat numbering, V domains shown) VH: QVQLVESGGGVVQPGRSLRLSCAASGFTFSNAWMHWVRQAPGKGLEWVAQIKAKSNNYATYYAESVKGRFTISRDDSKNSLYLQMNSLKTEDTAVYYCRYSHYGAYYGVDAWGQGTTVTVSS VL: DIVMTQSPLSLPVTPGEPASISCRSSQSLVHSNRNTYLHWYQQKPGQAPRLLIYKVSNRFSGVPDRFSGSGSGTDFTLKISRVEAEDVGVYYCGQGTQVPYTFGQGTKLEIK , thanks.
Result: 0.22

Task: Record: CE115HA000 K64A (antibody, name in Kabat numbering, V domains shown) VH: QVQLVESGGGVVQPGRSLRLSCAASGFTFSNAWMHWVRQAPGKGLEWVAQIKAKSNNYATYYAESVAGRFTISRDDSKNSLYLQMNSLKTEDTAVYYCRYVHYGAYYGVDAWGQGTTVTVSS VL: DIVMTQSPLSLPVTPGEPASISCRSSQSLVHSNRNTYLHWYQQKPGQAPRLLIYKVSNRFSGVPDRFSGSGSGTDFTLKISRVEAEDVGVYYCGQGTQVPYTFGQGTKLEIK
Result: 0.32
